src = patent US20220242936A1

Would you kindly list koff for each of these binders?
# Target desc: T1, Aβ1-42 polypeptide (human)
# T1 construct: Synthetic peptide; also called Aβ1-42 monomer; Aβ monomer
# T1 sequence (peptide, as listed by the source): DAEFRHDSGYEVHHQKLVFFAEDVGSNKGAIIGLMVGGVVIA
# Protocol: SPR, Biacore T200, antibody captured on Protein A chip, human Aβ antigen as analyte

1. 066-4.26.14H5L2 (antibody, human IgG1, V domains shown, Humanized full-length antibody; human IgG1 heavy constant and human kappa light constant (vectors pGS003-hIgG1CH, pGS003-hIgKCL)) VH: EVQLVESGGGLVQPGGSLRLSCVASGFTFRSYAMSWVRQAPGKGLEWVASISTTSNTYYPDSVKGRFTTSRDNSKNTVYLQMSSLRAEDTAVYYCGRGVITNQAWFAYWGQGTLVTVSS VL: DIVLTQSPATLSVSPGERATLSCRASQSISNNLHWYQQKPGQAPRLLIKYASQSISGIPARFSGSGSGTDFTLTISSLQSEDFAVYFCQQSNSWPLTFGGGTKVEIKR: 0.000278 s⁻¹
2. 066-4.26.14 mouse-human chimeric antibody (antibody, human IgG1, V domains shown) VH: EVKLVESGGGLVKPGGSLKLSCAASGFTFRSYAMSWVRQTPEKRLEWVASISTTSNTYYPDSVKGRFTTSRDNARNIVYLQMSSLRSDDTAMYYCGRGVITNQAWFAYWGQGTLVTVSA VL: DIVLTQSPATLSVTPGDSVSLSCRASQSISNNLHWYQQKSHESPRLLIKYASQSISGIPSRFSGSGSGTDFTLSVNNVGTEDFGMYFCQQSNSWPLTFGAGTKLELKR: 0.000333 s⁻¹
3. 066-4.26.14H4L2 (antibody, human IgG1, V domains shown, Humanized full-length antibody; human IgG1 heavy constant and human kappa light constant (vectors pGS003-hIgG1CH, pGS003-hIgKCL)) VH: EVQLVESGGGLVQPGGSLRLSCAASGFTFRSYAMSWVRQAPGKGLEWVASISTTSNTYYPDSVKGRFTTSRDNAKNSVYLQMSSLRDEDTAMYYCGRGVITNQAWFAYWGQGILVTVSS VL: DIVLTQSPATLSVSPGERATLSCRASQSISNNLHWYQQKPGQAPRLLIKYASQSISGIPARFSGSGSGTDFTLTISSLQSEDFAVYFCQQSNSWPLTFGGGTKVEIKR: 0.000463 s⁻¹

Continue with the binder presented below.
Report koff for 066-4.26.14H5L3 (antibody, human IgG1, V domains shown, Humanized full-length antibody; human IgG1 heavy constant and human kappa light constant (vectors pGS003-hIgG1CH, pGS003-hIgKCL)) VH: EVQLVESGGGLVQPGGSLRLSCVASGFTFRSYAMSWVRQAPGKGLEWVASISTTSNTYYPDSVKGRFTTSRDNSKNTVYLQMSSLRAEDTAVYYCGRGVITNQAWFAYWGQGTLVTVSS VL: DIVLTQSPDFQSVTPKEKVTISCRASQSISNNLHWYQQKPDQSPKLLIKYASQSISGIPSRFSGSGSGTDFTLTINSLEAEDAAAYFCQQSNSWPLTFGPGTKVEIKR
0.00046 s⁻¹
